Assay: detection-step artefacts after finished caspase reaction – biochemical, fluorescence, Rh110, 20 µM, artefact control for Apaf-1 activator project, confirmation (AID 504616)
Details: quenched caspase reaction, Ex480/Em540, at 20 µM
The list shows a part of the results.
As shown below, each of these compounds has a reported fluorescence interference (activity change) value.
recordedEndpoint: fluorescence interference (activity change) (%)

- Cc1nn(CC(=O)Nc2ccc(C#N)cc2)c(C)c1[N+](=O)[O-]: -2.47
- COc1ccc(C2c3ccc(O)cc3Oc3ncn(CCCO)c(=N)c32)cc1OC (centres undefined): -0.45
- O=C(Nc1cccc(-c2nc3ccccc3[nH]2)c1)c1ccc(C(=O)Nc2cccc(-c3nc4ccccc4[nH]3)c2)cc1: 7.06
- CC1COc2ccccc2N1C(=O)c1cccnc1Cl (centres undefined): 0.54
- O=c1[nH]cnc2c1c(-c1ccccc1)cn2-c1ccc(F)cc1: 13.3
- Brc1ccc(/C=N/N2CCN(C3c4ccccc4-c4ccccc43)CC2)s1: -2.39
- Cc1ccc(S(=O)(=O)N2CCOCC2)cc1C(=O)NC(=S)N(Cc1ccccc1)C(C)C: 3.5
- O=C(CSc1ccc(-c2ccc(-n3cccn3)cc2)nn1)Nc1ccc([N+](=O)[O-])cc1: 2.63
- COc1cc(C(=O)NCc2nnc(SCC(=O)Nc3nc4ccc(C)cc4s3)o2)cc(OC)c1OC: -5.21
- COc1ccc(S(=O)(=O)N2CCCCC2)cc1NC(=O)c1cc([N+](=O)[O-])ccc1N1CCOCC1: 4.4
- COC(=O)C(C)N(C#N)c1nc(C)nc(C)n1 (centres undefined): 3.06
- Cc1cc(NC(=O)c2cccc(N3C(=O)CCC3=O)c2)no1: 0.61
- N#CC1(C#N)C(C(=O)C23CC4CC(CC(C4)C2)C3)C12CCOCC2 (centres undefined): -0.76
- Nc1cc(C(F)(F)F)ccc1N1CCOCC1: -1.22
